Biological target: Tyrosine-protein phosphatase non-receptor type 1 (Homo sapiens, UniProt P18031)
Sequence (P18031 whole entry): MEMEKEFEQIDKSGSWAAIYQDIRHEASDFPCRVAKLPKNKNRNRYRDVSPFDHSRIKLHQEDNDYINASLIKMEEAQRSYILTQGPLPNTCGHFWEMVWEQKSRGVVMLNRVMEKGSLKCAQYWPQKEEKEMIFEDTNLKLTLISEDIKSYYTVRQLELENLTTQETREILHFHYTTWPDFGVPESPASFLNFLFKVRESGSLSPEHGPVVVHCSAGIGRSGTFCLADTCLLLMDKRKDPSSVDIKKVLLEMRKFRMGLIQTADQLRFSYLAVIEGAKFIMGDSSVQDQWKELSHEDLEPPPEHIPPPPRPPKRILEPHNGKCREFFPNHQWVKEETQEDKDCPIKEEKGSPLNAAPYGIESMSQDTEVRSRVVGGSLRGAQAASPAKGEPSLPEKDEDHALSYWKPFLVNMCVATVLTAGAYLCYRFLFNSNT
This listing pairs compounds with measured IC50.
Numeric only. Scale: µM

A selection of reference data follows.
Cc1ccc(S(=O)(=O)Oc2cc(OCc3ccc(C(F)(F)F)cc3)c(/C=C3\SC(=O)NC3=O)cc2Br)cc1 :: 1.3
O=C(O)COc1cc(OCc2ccccc2)ccc1/C=C1\SC(=O)NC1=O :: 136

Looking up O=C1NC(=O)/C(=C/c2ccc(OCc3ccccc3)cc2OCc2ccccc2)S1 , I found its IC50 recorded as 10

The reported value for O=C1NC(=O)/C(=C/c2ccc(OCc3ccccc3)cc2OCc2ccc(F)cc2)S1 in terms of IC50 is 9
